Data provenance: patent US20250346600A1

experimental_target: Full length WRN protein (aa 2-1432) (Homo sapiens (Human))
Sequence (Q14191 2-1432): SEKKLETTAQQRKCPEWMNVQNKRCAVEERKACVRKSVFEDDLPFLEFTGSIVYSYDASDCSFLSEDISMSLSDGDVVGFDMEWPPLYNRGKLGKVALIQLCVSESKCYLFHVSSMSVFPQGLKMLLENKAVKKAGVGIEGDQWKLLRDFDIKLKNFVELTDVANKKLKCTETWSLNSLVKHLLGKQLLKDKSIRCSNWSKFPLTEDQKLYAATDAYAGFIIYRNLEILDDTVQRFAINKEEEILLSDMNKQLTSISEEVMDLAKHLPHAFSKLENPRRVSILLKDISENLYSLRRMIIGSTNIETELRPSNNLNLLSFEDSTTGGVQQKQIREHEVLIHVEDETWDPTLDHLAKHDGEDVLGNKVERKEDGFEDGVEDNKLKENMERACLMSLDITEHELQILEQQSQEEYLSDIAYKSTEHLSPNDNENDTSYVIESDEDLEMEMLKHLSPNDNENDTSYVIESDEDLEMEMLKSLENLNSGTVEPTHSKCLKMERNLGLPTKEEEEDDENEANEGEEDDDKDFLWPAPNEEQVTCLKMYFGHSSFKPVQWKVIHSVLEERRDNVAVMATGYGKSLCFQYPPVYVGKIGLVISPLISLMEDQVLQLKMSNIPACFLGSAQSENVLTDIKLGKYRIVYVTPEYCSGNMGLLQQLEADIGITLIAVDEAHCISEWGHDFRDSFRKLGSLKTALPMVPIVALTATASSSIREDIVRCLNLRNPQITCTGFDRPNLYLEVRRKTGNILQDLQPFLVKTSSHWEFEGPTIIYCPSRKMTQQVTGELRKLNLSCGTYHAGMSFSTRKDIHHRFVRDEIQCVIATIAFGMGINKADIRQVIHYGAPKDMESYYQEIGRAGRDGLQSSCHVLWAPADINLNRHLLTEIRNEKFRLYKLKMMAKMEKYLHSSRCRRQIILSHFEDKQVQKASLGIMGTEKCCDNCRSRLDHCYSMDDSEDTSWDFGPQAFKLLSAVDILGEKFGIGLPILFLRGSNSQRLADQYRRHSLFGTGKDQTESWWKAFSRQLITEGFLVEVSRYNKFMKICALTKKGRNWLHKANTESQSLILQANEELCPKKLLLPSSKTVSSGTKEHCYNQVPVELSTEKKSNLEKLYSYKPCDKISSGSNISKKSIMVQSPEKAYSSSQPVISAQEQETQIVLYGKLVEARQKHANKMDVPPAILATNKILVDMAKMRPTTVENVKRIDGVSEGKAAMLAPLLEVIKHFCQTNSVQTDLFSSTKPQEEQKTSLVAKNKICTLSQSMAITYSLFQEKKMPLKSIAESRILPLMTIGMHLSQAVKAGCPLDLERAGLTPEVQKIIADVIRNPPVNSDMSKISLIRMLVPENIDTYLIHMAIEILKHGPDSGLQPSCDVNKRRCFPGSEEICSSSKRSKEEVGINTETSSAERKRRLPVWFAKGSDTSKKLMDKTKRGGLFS
run_description: WRN ATPase ADP-Glo biochemical assay, Assay Format A (10 μM ATP)
stated_conditions: 0.25 nM WRN, 100 nM C6.18 ssDNA, 30 min preincubation, read-out: ATPase ADPGlo AC50 (uM)- Assay Format A
measured_metric: AC50

Some molecules with recorded AC50:
C=CC(=O)N1CCc2nn(-c3ccc(C4CC4)cc3O)c3c2C(C1)N(C(=O)c1cnc(C(C)(F)F)c(F)c1N)CC3 (stereo not drawn)
0.0015 to 0.005 µM
C=CC(=O)N1CCc2nn(-c3ccc(C4CC4)cc3)c3c2C(C1)N(C(=O)c1cnc([N+](=O)[O-])c(O)c1)CC3 (stereo not drawn)
0.0015 to 0.005 µM

Here C=CC(=O)N1CCOc2nn(-c3ccc(C(C)C)cc3)c3c2C(C1)N(C(=O)c1ccc(Br)c(O)c1)CC3 (stereo not drawn) was tested on Full length WRN protein (aa 2-1432) (Homo sapiens (Human)), and its AC50 came to 0.0015 to 0.005 µM
